B1: library; a variant is named by its letters at N, in order (parent)
chain: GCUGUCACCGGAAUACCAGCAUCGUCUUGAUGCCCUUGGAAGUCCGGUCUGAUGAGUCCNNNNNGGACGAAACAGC

# Variants of: B1
# MEASUREMENT_NOTES: normalized RNA/DNA level with ligand (relative to sTRSVctl = 100) (log10 (% of sTRSVctl)); higher = less ribozyme self-cleavage, higher mRNA level
# CONDITION_SUMMARY: ligand concentration (+) RNA-Seq: 5 mM, HEK293T, reporter: mCherry (pCS4076), ligand present: yes
Parameter normalized RNA/DNA level with ligand (log10): see the listing below.
Enter a number only.

1. CGUCC :: 2.01
2. AACUA :: 2.01
3. AUAAA :: 1.99
4. CAUAA :: 1.88
5. UACAU :: 2.03
6. CCAAC :: 1.95
7. GAAUG :: 1.9
8. AGCAA :: 1.94

# next variant below
Any idea what normalized RNA/DNA level with ligand (log10) was measured for ACAGG ? 2
